// data source = ChEMBL document CHEMBL5230089

- measured_on: Receptor-type tyrosine-protein kinase FLT3 (Homo sapiens, UniProt P36888, D835Y)
- protocol_summary: Inhibition of FLT3-D835Y mutant phosphorylation in human MOLM-14 cell incubated for 2 hrs
- Type: cell-based
test_readout: IC50 (nM)
One number for each entry, in nM.

**Query** Provide the documented IC50 with Receptor-type tyrosine-protein kinase FLT3 (Homo sapiens, UniProt P36888, D835Y) as the system for "Cc1ncc(C(=O)Nc2ccc(CN3CCN(C)CC3)c(C(F)(F)F)c2)cc1C#Cc1c(N)ncc2ccc(F)cc12"
**Result** 16.6

---

- measured_on: Aurora kinase A (Homo sapiens, UniProt O14965)
- Sequence (O14965 whole entry): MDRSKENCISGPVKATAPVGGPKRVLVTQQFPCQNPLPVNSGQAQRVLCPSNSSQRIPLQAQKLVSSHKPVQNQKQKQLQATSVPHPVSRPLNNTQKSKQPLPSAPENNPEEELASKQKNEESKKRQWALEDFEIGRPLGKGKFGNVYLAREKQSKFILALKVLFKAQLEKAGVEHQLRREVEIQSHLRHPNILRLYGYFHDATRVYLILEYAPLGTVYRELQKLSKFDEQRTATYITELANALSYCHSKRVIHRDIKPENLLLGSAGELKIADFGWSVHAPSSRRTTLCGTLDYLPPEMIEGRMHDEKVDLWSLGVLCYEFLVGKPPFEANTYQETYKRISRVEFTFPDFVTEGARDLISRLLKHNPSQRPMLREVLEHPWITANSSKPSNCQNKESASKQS
- protocol_summary: Inhibition of Aurora-A (unknown origin)
test_readout: pIC50
One number for each entry, as −log10 of the molar value.

**Query** Give the measured pIC50 of "CC(C)(C)c1cc(NC(=O)Nc2ncc(CCNc3ncnc4[nH]c(-c5ccccc5)cc34)s2)no1" .
**Result** 7.82

---

- System: MV4-11
- protocol_summary: cells
- assay_conditions: Homo sapiens, MV4-11, 72 h
- Description: Cytotoxicity against human MV4-11 cells assessed as cell viability incubated for 72 hrs by Cell titer-blue assay
test_readout: IC50 (nM)
Give bare numbers, in nM.

**Query** Give the measured IC50 of "CC1(COc2ccc3c(c2)ncn3-c2ccc3cccc(N4CCC(N)CC4)c3n2)COC1" .
**Result** 0.92

---

- measured_on: Aurora kinase A (Homo sapiens)
- protocol_summary: Inhibition of Aurora-A (unknown origin) by kinase-glo luminescent assay
test_readout: IC50 (nM)
Give bare numbers, in nM.

**Query** Give the measured IC50 of "COc1ccc(C(=O)NC(=O)Nc2ccc3c(c2)NC(=O)/C3=C\c2[nH]c(C)c(C(=O)NCCN3CCCC3)c2C)c(F)c1" .
**Result** 0.4

---

- measured_on: Receptor-type tyrosine-protein kinase FLT3 (Homo sapiens, UniProt P36888, ITD)
- protocol_summary: Inhibition of FLT3-ITD mutant phosphorylation in human MOLM-14 cell incubated for 2 hrs
- Format: cell-based
test_readout: IC50 (nM)
One number for each entry, in nM.

**Query** Provide the documented IC50 with Receptor-type tyrosine-protein kinase FLT3 (Homo sapiens, UniProt P36888, ITD) as the system for "Cc1ncc(C(=O)Nc2ccc(CN3CCN(C)CC3)c(C(F)(F)F)c2)cc1C#Cc1c(N)ncc2ccc(F)cc12"
**Result** 0.5

---

- measured_on: Receptor-type tyrosine-protein kinase FLT3 (Homo sapiens, UniProt P36888, ITD)
pIC50: −log10 of the molar value.
Please use Yes whenever pIC50 is not below 8, and No whenever it is.

structure_string=Cc1[nH]c(/C=C2\C(=O)Nc3ccc(F)cc32)c(C)c1NC(=O)[C@@H]1CCCN1 measured_on="Receptor-type tyrosine-protein kinase FLT3 (Homo sapiens, UniProt P36888, ITD)" answer_label=Yes

**Query** Form field: pIC50 at least 8? Entry: "Cc1cc2ncc(-c3ccc(NC(=O)Nc4cc(C(C)(C)C)on4)cc3)nc2cc1C"
**Result** No

**Query** And "COc1cc(Nc2nc3cccc(-c4cccc(C(N)=O)c4)c3o2)ccc1N1CCNCC1" ?
**Result** Yes

**Query** And "COc1ccc(C(=O)NC(=O)Nc2ccc3c(c2)NC(=O)/C3=C\c2[nH]c(C)c(C(=O)NCCN3CCCC3)c2C)c(F)c1" ?
**Result** Yes

**Query** And "CC(C)(C)c1cc(NC(=O)Nc2ncc(CCNc3ncnc4[nH]c(-c5ccccc5)cc34)s2)no1" ?
**Result** No

---

Can you tell me IC50 for the items I'm about to list?
- measured_on: Receptor-type tyrosine-protein kinase FLT3 (Homo sapiens, UniProt P36888)
- Sequence (P36888 whole entry): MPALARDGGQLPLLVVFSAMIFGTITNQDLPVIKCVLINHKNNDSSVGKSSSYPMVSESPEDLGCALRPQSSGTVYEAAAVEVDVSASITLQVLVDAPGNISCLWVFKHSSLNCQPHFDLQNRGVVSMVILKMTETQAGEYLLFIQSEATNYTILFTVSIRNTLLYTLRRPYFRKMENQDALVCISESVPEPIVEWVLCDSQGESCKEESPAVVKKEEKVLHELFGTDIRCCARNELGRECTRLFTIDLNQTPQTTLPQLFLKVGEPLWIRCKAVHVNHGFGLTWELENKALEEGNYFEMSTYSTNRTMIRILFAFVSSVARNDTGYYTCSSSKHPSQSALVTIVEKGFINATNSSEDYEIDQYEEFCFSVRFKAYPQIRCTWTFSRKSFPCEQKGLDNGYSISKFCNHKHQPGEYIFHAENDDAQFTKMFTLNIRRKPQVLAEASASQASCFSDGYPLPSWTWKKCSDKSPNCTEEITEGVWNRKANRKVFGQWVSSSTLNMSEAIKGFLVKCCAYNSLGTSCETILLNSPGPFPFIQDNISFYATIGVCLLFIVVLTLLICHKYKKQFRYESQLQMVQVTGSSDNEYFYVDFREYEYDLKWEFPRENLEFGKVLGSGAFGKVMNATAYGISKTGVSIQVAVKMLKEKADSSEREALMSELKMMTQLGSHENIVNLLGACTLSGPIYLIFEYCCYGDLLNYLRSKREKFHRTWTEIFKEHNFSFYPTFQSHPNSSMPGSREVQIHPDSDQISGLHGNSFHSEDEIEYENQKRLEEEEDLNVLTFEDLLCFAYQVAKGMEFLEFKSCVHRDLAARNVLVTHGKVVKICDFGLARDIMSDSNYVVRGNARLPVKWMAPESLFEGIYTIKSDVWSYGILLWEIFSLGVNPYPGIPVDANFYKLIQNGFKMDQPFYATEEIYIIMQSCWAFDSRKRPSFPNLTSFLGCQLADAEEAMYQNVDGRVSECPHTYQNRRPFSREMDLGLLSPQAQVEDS
- protocol_summary: Inhibition of FLT3 (unknown origin)
Numbers only, in nM.

Batch request: IC50 per item, same order as input.
1. O=C(c1ccncc1)N1CCc2nc(-c3cc4cc(F)ccc4[nH]c3=O)[nH]c2C1
2. O=C(c1ccc(CN2CCCCC2)cc1)N1CCc2nc(-c3cc4cc(F)ccc4[nH]c3=O)[nH]c2C1

**Result**
1: 2.7; 2: 0.57

---

- Tested on: MOLM-14
- protocol_summary: cells
- assay_conditions: Homo sapiens, MOLM-14, 72 h
IC50 strictly under 2 nM means Criterion met; at 2 nM or over means Criterion not met.

**Query** Consider "COc1cc2c(N3CCN(C(=O)Nc4ccc(OC(C)C)cc4)CC3)ncnc2cc1OCCCN1CCCCC1" . Does its IC50 lie strictly below 2 nM?
**Result** Criterion not met

**Query** And "CCc1nc(C(N)=O)c(Nc2ccc(N3CCC(N4CCN(C)CC4)CC3)c(OC)c2)nc1NC1CCOCC1" ?
**Result** Criterion met

**Query** And "CN1CCC(Nc2nc(Nc3ccc(Oc4ccccc4)cc3)c3c(=O)[nH]cc(Br)c3n2)CC1" ?
**Result** Criterion not met

**Query** And "Cc1ccc(C(=O)Nc2ccc(CN3CCN(C)CC3)c(C(F)(F)F)c2)cc1C#Cc1c(N)ncc2ccc(Cl)cc12" ?
**Result** Criterion met

---

- measured_on: Receptor-type tyrosine-protein kinase FLT3 (Homo sapiens, UniProt P36888, D835Y)
- protocol_summary: Inhibition of FLT3-D835Y mutant (unknown origin)
test_readout: IC50 (nM)
One number for each entry, in nM.

**Query** Provide the documented IC50 with Receptor-type tyrosine-protein kinase FLT3 (Homo sapiens, UniProt P36888, D835Y) as the system for "CC1=CC(=O)N(Nc2nc(-c3cccs3)nc3sc(C)c(C)c23)C1=O"
**Result** 21

---

- System: BaF3
- protocol_summary: cells
- assay_conditions: Mus musculus, BaF3, 72 h
test_readout: pIC50
Answers are plain numbers, as −log10 of the molar value.

**Query** Provide the documented pIC50 with BaF3 as the system for "CN1CCC(Nc2nc(Nc3ccc(Oc4ccccc4)cc3)c3c(=O)[nH]cc(Br)c3n2)CC1"
**Result** 7.42

---

- System: MV4-11
- protocol_summary: Antiproliferative activity against human MV4-11 cells assessed as cell growth inhibition measured after 72 hrs by cell titer-Blue assay
- Format: functional, cell-based
- assay_conditions: MV4-11, 72 h
test_readout: pIC50
Answers are plain numbers, as −log10 of the molar value.

**Query** Provide the documented pIC50 with MV4-11 as the system for "Cc1ncc(C(=O)Nc2ccc(CN3CCN(C)CC3)c(C(F)(F)F)c2)cc1C#Cc1c(N)ncc2ccc(F)cc12"
**Result** 9.30
